Assay remarks: SW1088 Cancer Cell Toxicity qHTS against the NCATS CANVASS Library (AID 1347350); further: nearly all actives have a fitted effect of over 75% in size
Study conditions: SW1088 viability, CellTiter-Glo luminescence, 72 h; series mostly up to 38.3 µM
Records with an inconclusive call do not appear. The source made the active and inactive calls. The call rests on the fitted dose curve; in most records, active means well fitted cell-killing curve with a large enough effect; inconclusive means small, poorly fitted or top-dose-only effect; inactive means flat fitted curve, though single readings scatter.
Labels: active, inactive

1) [C-]#[N+][C@@]12C(=O)[C@@H]3[C@@H](O[C@@]4(C(=O)N(C)c5cccc1c54)C3(C)C)C(=O)[C@@]2(C)C=C | inactive
2) C/C=C1/C2=CCCN3C(=O)O[C@H]([C@H]1O)[C@H]23 | inactive
3) CC(=O)c1c(C)cc2c(c1O)C(=O)c1c(O)cc(O)cc1C2=O | inactive
4) C[C@]12CC[C@]3(C1)[C@H](CC2=O)C[C@@H](OC(=O)c1ccccc1)[C@H]1[C@](C)(C(=O)O)CCC[C@@]13C | active
5) C=C1C[C@]23C=CC(=O)[C@@](C)(CCCC(C)C(=O)N[C@@H](CO)C(=O)O)[C@@H]2C[C@@H]1CC3 (stereo partly specified) | inactive
6) C=C[C@]1(C)CC[C@@H]([C@H](C)C(=O)CC=C(C)C)O1 | inactive
7) C=C[C@@]1(C)CC[C@@H]([C@H](C)C(C)=O)O1 | inactive
8) C[C@]12CCC[C@](C)(C(=O)O)[C@@H]1CC[C@@]1(C)c3cocc3CC[C@H]21 | inactive
9) CO[C@@H](C[C@@H](C)[C@@H](O)/C=C/C=C/CNC(=O)C(C)(C)[C@H](O)\C(C)=C/C=C\C=C\Cc1cnco1)[C@]1(O)[C@@H](C)C(=O)N(C)[C@@]12COC2=O | inactive
10) COc1cc2oc3ccccc3c(=O)c2cc1OC | inactive
11) CCCc1c2c([nH]c(=O)c1C)C(=O)c1[nH]c(=O)c(C)c(CCC)c1C2=O | active
12) C=C1CC[C@@H](O[C@H]2C[C@@](O)([C@H](C)NC(=O)c3[nH]c(C)c(Cl)c3Cl)[C@H](O)[C@@H](C)O2)[C@@H]2C=C[C@H](C)C(/C(O)=C3/C(=O)[C@H](C(C)C)N([C@@H]4O[C@H](C)[C@H](OC(N)=O)[C@H](OC(C)=O)[C@@H]4OC)C3=O)[C@@H]12 (stereo partly specified) | active
13) C/C1=C/[C@@H](C)[C@H](O)[C@@H](O)/C=C/CC/C=C/C(=O)O[C@@H]1[C@H](C)C(=O)/C=C/CC1CC(=O)NC(=O)C1 | inactive
14) CC(CCC[C@]1(C)C(=O)C=C[C@@]23C[C@]4(C)O[C@@H](C[C@@H]4[C@H]2O)C31)C(=O)O (stereo partly specified) | inactive
15) O=C1CC(c2ccc(O)cc2)Oc2ccccc21 (stereo unspecified) | inactive
16) COc1cc(C2C3=C(Cc4cc5c(cc42)OCO5)C(=O)OC3)cc(OC)c1OC (stereo unspecified) | inactive

----------
Assay remarks: KB-8-5-11 Cancer Cell Toxicity qHTS against the NCATS CANVASS Library (AID 1347364); further: nearly all actives have a fitted effect of over 75% in size
Study conditions: KB-8-5-11 MDR cells viability, CellTiter-Glo, 72 h; series mostly up to 46.1 µM
Excerpt: Natural products and their derivatives continue to be wellsprings of nascent therapeutic potential. […] To address this issue, the Canvass library of natural products was assembled (https://tripod.nih.gov/canvass), in collaboration with academic and industry researchers, for quantitative high-throughput screening (qHTS) across a diverse set of cell-based and biochemical assays. […]
Records with an inconclusive call do not appear. Active and inactive are the calls of the source. Calls follow the shape of the dose curve; as a rule, active = well fitted cell-killing curve with a large enough effect; inconclusive = small, poorly fitted or top-dose-only effect; inactive = flat fitted curve, though single readings scatter. Peptide text beside a SMILES is read from it. * marks the point of attachment. Hexanoyl = CCCCCC(=O)*
Labels: active, inactive

1) COC1C(C)OC(OCC23C[C@@H]4[C@H](C)CC[C@H]4C4(C=O)CC2C=C(C(C)C)C34C(=O)O)[C@@H](O)[C@H]1O (stereo partly specified) | inactive
2) CC(=O)c1c(C)cc2c(c1O)C(=O)c1c(O)cc(O)cc1C2=O | inactive
3) C=CC(CCCCC)C1C(=O)NC(=O)C1C(=O)C1C2C(C)CC(C(=O)O)CC2CC1(O)C(=O)/C=C/C (stereo unspecified) | inactive
4) O=C1CC(c2ccc(O)cc2)Oc2cc(O)ccc21 (stereo unspecified) | inactive
5) CC1=C[C@H]2[C@H]3C(=O)C(c4ccc(O)cc4)=C[C@@]3(c3ccc(O)cc3)[C@@H]1C(=O)[C@]2(C)O | active
6) CC(=O)N[C@H](C)c1nc(/C=C/C=C/C(=O)CC2CC(=O)CC[C@]2(C)O)cs1 (stereo partly specified) | inactive
7) C/C(=C\[C@@H](C)CC/C=C/CC/C=C/C(=O)O)[C@H](O)[C@H](C)C(=O)CCCC1CC(=O)NC(=O)C1 | inactive
8) C/C(=C\[C@H](C)C(=O)/C=C/CC1CC(=O)NC(=O)C1)[C@@H]1OC(=O)CCCC/C=C/[C@H](O)[C@@H](O)[C@@H]1C | inactive
9) C=C(Cl)[C@](Cl)(CBr)CC[C@@H](Br)C(C)(C)Cl | active
10) C/C(=C\[C@@H](C)CC/C=C/CC/C=C/C(=O)O)[C@@H](O)[C@H](C)C(=O)CCCC1CC(=O)NC(=O)C1 | inactive
11) C[C@@]12CCC[C@@](C)(C(=O)O)[C@H]1CC[C@@]13C[C@@H](CC[C@H]12)[C@](C)(O)C3 | inactive
12) COc1ccc([C@@H]2c3cc4c(cc3C(=O)[C@H](C)C2C)OCO4)cc1OC (stereo partly specified) | active
13) CCCCCC(=O)N[C@@H](CC(C)C)C(=O)N[C@H](C=O)CCC(=O)O (Hexanoyl-Leu-Glu-aldehyde) | inactive
14) C[C@@]12CCC[C@@](C)(C(=O)OP(=O)(O)OC[C@H]3O[C@@H](n4cnc5c(N)ncnc54)[C@H](O)[C@@H]3O)[C@H]1C[C@@H](O)[C@@]13C[C@@H](CC[C@@H]21)[C@](C)(O)C3 | inactive
15) CN1CC[C@@]23c4ccccc4N[C@@H]1[C@@]21CCN(C)[C@@H]3Nc2ccccc21 | inactive
16) C/C=C/C(=O)C1(O)CC2CC(C(=O)O)CC(C)C2C1C1=C2C(=O)NC(=O)C2=C(CCCCC)C(C)O1 (stereo unspecified) | inactive
17) COc1cc2c(cc1OC)[C@@H](c1ccc3c(c1)OCO3)C(C)C(C)C2=O (stereo partly specified) | active
18) O=C1OC(CCO)c2cccc(O)c21 (stereo unspecified) | inactive
19) O=Cc1ccc2n1C[C@]1(C[C@H](O)[C@@H](CO)O1)OC2 | inactive
20) CC1=C(C)C(=O)OC(C(C)C2(O)CCC3C4C5OC5C5(O)CC=CC(=O)C5(C)C4CCC32C)C1 (stereo unspecified) | inactive
21) C/C=C(/CO)C(=O)O[C@@H]1[C@H](O)[C@@H](C(=O)OC)O[C@@H]2C[C@H]3OC(n4cnc5c(N)ncnc54)[C@H](OC)[C@H]3O[C@@]12O (stereo partly specified) | inactive
22) CO[C@@H](C[C@@H](C)[C@@H](O)/C=C/C=C/CNC(=O)C(C)(C)[C@H](O)\C(C)=C/C=C\C=C\Cc1cnco1)[C@]1(O)[C@@H](C)C(=O)N(C)[C@@]12COC2=O | inactive
23) O=Cc1ccc2n1C[C@]1(OC2)O[C@H](CO)[C@@H](O)[C@@H]1O | inactive
24) C=C1C[C@]23C=CC(=O)[C@@](C)(CCCC(C)C(=O)N[C@@H](CO)C(=O)O)[C@@H]2C[C@@H]1CC3 (stereo partly specified) | inactive
25) CCCc1c2c([nH]c(=O)c1C)C(=O)c1[nH]c(=O)c(C)c(CCC)c1C2=O | inactive
26) O=C1c2c(O)cc(O)cc2OC(c2ccc(O)cc2)C1O (stereo unspecified) | inactive
27) Oc1ccc(C2Oc3cc(O)c4c(c3[C@@H]2c2cc(O)cc(O)c2)[C@H]2C(c3ccc(O)cc3)c3c(O)cc5c(c3[C@H]2C4c2ccc(O)cc2)[C@H](c2cc(O)cc(O)c2)C(c2ccc(O)cc2)O5)cc1 (stereo partly specified) | inactive
28) CC(=O)Oc1cc2c(c(OC(C)=O)c1C1CCc3cc(Cl)c(Cl)n31)C(=O)n1c-2cc(Cl)c1Cl (stereo unspecified) | active
29) CO[C@H]1[C@@H](OC(=O)/C(C)=C\[C@@H]2O[C@@H]2[C@H]2O[C@H]2C)[C@H](O)[C@H](OCC23C[C@@H]4[C@H](C)CC[C@H]4C4(C=O)CC2C=C(C(C)C)C34C(=O)O)O[C@@H]1C (stereo partly specified) | inactive
30) C/C1=C/[C@@H](C)[C@H](O)C/C=C/CC/C=C/C(=O)O[C@@H]1[C@H](C)C(=O)CCCC1CC(=O)NC(=O)C1 | inactive
31) CC[C@@H](c1cc(OC)c(OC)cc1OC)[C@H](C)[C@@H](/C(C)=C/c1cc(OC)c(OC)cc1OC)c1cc(OC)c(OC)cc1OC | inactive
